System: LOC_OS01G48390-cb002;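 note: purified Escherichia coli-expressed rice kinase domain construct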
Test: thermal shift delta Tm vs DMSO control; higher = stronger stabilization (binding)
Settings: 12.5 µM; protein concentration 2 µM
Where a name gives a salt, the structure may show the parent alone.
Measured thermal shift delta Tm by item
readout-kind: thermal shift delta Tm (°C)

* COc1cc2ncnc(Sc3nnc(C)s3)c2cc1OC | 2.02
* Cc1nc(N)sc1-c1ccnc(Nc2ccc(N3CCOCC3)cc2)n1 | 2.34
* COc1c(C)c(C(=O)c2ccc(N)c(C(=O)O)c2)n2ccccc12 | 0.46
* CCCCCCCCCCCCc1ccc(S(=O)(=O)Nc2nncs2)cc1 | 0.62
* COc1ccc(Cl)c(Nc2nc3ccccc3nc2NS(=O)(=O)c2cccc(NC(=O)C(C)(C)N)c2)c1 [Pilaralisib (XL147)] | 1.05
* CNc1nc(Nc2cnn([C@H]3CCN(C4COC4)C[C@@H]3F)c2Cl)ncc1C(F)(F)F | 1.82
* CN1CCN(c2cccc(Nc3nc4c(-c5ccc(S(C)(=O)=O)cc5)cccn4n3)c2)CC1 | 1.12
* S=C(NCc1ccc2c(c1)OCO2)N1CCN(c2ncnc3c2oc2ccccc23)CC1 [Amuvatinib (MP-470)] | 0.88
* CNC(=O)c1cccc(-c2ccc3c(N4CCOC[C@@H]4C)nc(N4CCOC[C@@H]4C)nc3n2)c1 [Vistusertib (AZD2014)] | 0.24
* CNCc1ccc(-c2cc(-c3nc(-c4ccc(S(=O)(=O)C(C)C)cc4)cnc3N)on2)cc1 | 0.69
* Cc1ccc(NC(=O)c2ccc(CN3CCN(C)CC3)cc2)cc1Nc1nccc(-c2cccnc2)n1 [Imatinib (STI571)] | 1.69
* O=C1Nc2ccccc2/C1=C1/Nc2ccccc2C1=O [Indirubin] | 0.94
* C=CC(=O)Nc1cccc(Nc2nc(Nc3ccc(OCCOC)cc3)ncc2F)c1 | 1.44
* COC1(c2sc3c(N4CCOCC4)nc(-c4cnc(N)nc4)nc3c2C)COC1 | 0
* C[C@@H](Oc1cc(-c2cnn(C3CCNCC3)c2)cnc1N)c1c(Cl)ccc(F)c1Cl | 5.62
* Cc1[nH]c(/C=C2\C(=O)Nc3ccc(S(=O)(=O)Cc4c(Cl)cccc4Cl)cc32)c(C)c1C(=O)N1CCC[C@@H]1CN1CCCC1 | 0.38
* O=C(Nc1nccs1)C(c1cc(F)ccc1O)N1Cc2ccccc2C1=O (centres undefined) | -0.1
* COc1cc(N2CCC(N)CC2)ccc1Nc1ncc(Cl)c(-c2c[nH]c3ccccc23)n1 | 0.17
* COc1cc2c(Nc3ccc(NC(=O)c4ccccc4)cc3)ncnc2cc1OCCCN1CCOCC1 | 0.89
* CN1CCCN(C(=O)c2cccc(-c3ccc(/C=C4/C(=O)Nc5ccc(Cl)cc54)o3)c2)CC1 | 1.96
* COc1ccc(-c2ccc3ncc4c(c3c2)n(-c2ccc(N3CCNCC3)c(C(F)(F)F)c2)c(=O)n4C)cn1 | 0.42
* Cc1ccc(-n2nc(C(C)(C)C)cc2NC(=O)NCc2cc(F)ccc2Oc2ccc3c(cnn3CCO)c2)cc1 [Pexmetinib (ARRY-614)] | 1.8
* CNC(=O)c1cc(Oc2ccc(NC(=O)Nc3ccc(Cl)c(C(F)(F)F)c3)cc2)ccn1 [Sorafenib Tosylate] | 2.56
* CC(C)n1nc(-c2ccc3oc(N)nc3c2)c2c(N)ncnc21 | 1.9
* CC(C)NC(=O)COc1cccc(-c2nc(Nc3ccc4[nH]ncc4c3)c3ccccc3n2)c1 | 0.33
* N#CCNC(=O)c1ccc(-c2ccnc(Nc3ccc(N4CCOCC4)cc3)n2)cc1 [Momelotinib (CYT387)] | 0.91
* Cc1cc(Nc2cc(N3CCN(C)CC3)nc(Sc3ccc(NC(=O)C4CC4)cc3)n2)n[nH]1 [Tozasertib (VX-680, MK-0457)] | 3.05
* COc1cc(Nc2ncc(F)c(Nc3ccc4c(n3)N(COP(=O)(O)O)C(=O)C(C)(C)O4)n2)cc(OC)c1OC [R788 (Fostamatinib) Disodium] | 0.57
* Cc1ccccc1-n1c(Cn2nc(-c3cccc(O)c3)c3c(N)ncnc32)nc2cccc(C)c2c1=O | 0.39
* C[C@@]1(C(=O)Nc2ccc(F)nc2)CCCN1c1nc(Nc2cc(C3CC3)n[nH]2)c2cccn2n1 | 1.12
* CCc1nc(C(N)=O)c(Nc2ccc(N3CCC(N4CCN(C)CC4)CC3)c(OC)c2)nc1NC1CCOCC1 [Gilteritinib (ASP2215)] | 1.66
* Cc1cnc(Nc2ccc(OCCN3CCCC3)cc2)nc1Nc1cccc(S(=O)(=O)NC(C)(C)C)c1 | 0.66
* Cc1cc(CS(=O)(=O)c2ccccc2)cc(OCc2ccc(CN3CCC[C@@H]3CO)cc2)c1 | 0.65
* CN(C[C@@H]1COCCO1)S(=O)(=O)Nc1ccc2ccc3ncc(-c4cnn(C)c4)cc3c(=O)c2c1 | 0.37
